Target: Estrogen receptor of uterus of mice (Mus musculus)
Construct: the uterus were removed and homogenized at 0° C; from tissue; host or cells: mouse uterus, 105,000 g supernatant (immature females 18 to 21 days old)
Sequence (P19785 1-599): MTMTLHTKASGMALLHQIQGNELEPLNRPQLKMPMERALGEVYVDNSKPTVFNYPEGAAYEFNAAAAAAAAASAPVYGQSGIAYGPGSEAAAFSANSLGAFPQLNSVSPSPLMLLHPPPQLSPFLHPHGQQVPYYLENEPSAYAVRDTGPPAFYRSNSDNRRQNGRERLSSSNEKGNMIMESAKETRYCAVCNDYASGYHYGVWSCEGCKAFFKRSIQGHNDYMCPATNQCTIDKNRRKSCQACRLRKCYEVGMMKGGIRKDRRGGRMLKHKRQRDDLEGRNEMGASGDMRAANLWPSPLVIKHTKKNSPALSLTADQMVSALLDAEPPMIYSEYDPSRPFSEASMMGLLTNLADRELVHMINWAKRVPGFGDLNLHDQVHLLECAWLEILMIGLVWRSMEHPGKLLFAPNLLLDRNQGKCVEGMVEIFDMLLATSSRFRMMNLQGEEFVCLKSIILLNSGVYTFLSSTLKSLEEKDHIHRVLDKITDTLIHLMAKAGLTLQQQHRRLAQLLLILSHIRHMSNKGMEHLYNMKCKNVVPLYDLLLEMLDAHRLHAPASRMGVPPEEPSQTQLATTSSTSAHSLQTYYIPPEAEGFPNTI
Experiment: Estrogen receptor binding (displacement of tritiated estradiol)
Details: second table; incubation 2 H at 0° C.
Each item that follows carries a reported relative affinity of tieing (ARL), Estrogen.
reported-endpoint: relative affinity of tieing (ARL), Estrogen

[[record]]
compound = "CN(C)c1ccc([C@H]2C[C@@]3(C)[C@@H](CC[C@@]3(O)C#CCl)[C@@H]3CCC4=CC(=O)CCC4=C32)cc1 [Example 25]"
tested_system = "Estrogen receptor of uterus of mice (Mus musculus)"
val = 0

[[record]]
compound = "C[C@]12C[C@H](c3ccc([N+](C)(C)[O-])cc3)C3=C4CCC(=O)C=C4CC[C@H]3[C@@H]1CC[C@@]2(O)C#CCl [Example 26]"
tested_system = "Estrogen receptor of uterus of mice (Mus musculus)"
val = 0

[[record]]
compound = "CN(C)c1ccc([C@H]2C[C@@]3(C)[C@@H](CC[C@@]3(O)C#Cc3ccccc3)[C@@H]3CCC4=CC(=O)CCC4=C32)cc1 [Example 29]"
tested_system = "Estrogen receptor of uterus of mice (Mus musculus)"
val = 0

[[record]]
compound = "C[C@]12C[C@H](c3ccc([N+](C)(C)[O-])cc3)[C@]34O[C@]35CCC(=O)C=C5CC[C@H]4[C@@H]1CC[C@@]2(O)C#CCl [Example 27]"
tested_system = "Estrogen receptor of uterus of mice (Mus musculus)"
val = 0

[[record]]
compound = "C=C(C)C#C[C@]1(O)CC[C@H]2[C@@H]3CCC4=CC(=O)CCC4=C3[C@@H](c3ccc(N(C)C)cc3)C[C@@]21C [Example 23]"
tested_system = "Estrogen receptor of uterus of mice (Mus musculus)"
val = 0

[[record]]
compound = "C=CC[C@]1(O)CC[C@H]2[C@@H]3CCC4=CC(=O)CCC4=C3[C@@H](c3ccc(N(C)C)cc3)C[C@@]21C [Example 37]"
tested_system = "Estrogen receptor of uterus of mice (Mus musculus)"
val = 0


Where do the numbers come from? From patent US5043332A.
